- target_system: cyclooxygenase activity of PGHS (Ovis aries)
reported_property: IC50 (nM)
Dear colleague, please return just the value in nM, with no unit written.

query: Returns the measured IC50 for the input compound. Input: CCCCCCOCC1C2CCC(O2)C1CC=CCCC(C)(C)C(=O)O (stereo not shown) [analog 2]
result: 80

* * *

- target_system: PGHS (cyclooxygenase activity) (Ovis aries, UniProt P05979)
- Construct: PGHS was purified from ram seminal vesicles; from tissue; host or cells: ram seminal vesicles
- Sequence (P05979 25-600): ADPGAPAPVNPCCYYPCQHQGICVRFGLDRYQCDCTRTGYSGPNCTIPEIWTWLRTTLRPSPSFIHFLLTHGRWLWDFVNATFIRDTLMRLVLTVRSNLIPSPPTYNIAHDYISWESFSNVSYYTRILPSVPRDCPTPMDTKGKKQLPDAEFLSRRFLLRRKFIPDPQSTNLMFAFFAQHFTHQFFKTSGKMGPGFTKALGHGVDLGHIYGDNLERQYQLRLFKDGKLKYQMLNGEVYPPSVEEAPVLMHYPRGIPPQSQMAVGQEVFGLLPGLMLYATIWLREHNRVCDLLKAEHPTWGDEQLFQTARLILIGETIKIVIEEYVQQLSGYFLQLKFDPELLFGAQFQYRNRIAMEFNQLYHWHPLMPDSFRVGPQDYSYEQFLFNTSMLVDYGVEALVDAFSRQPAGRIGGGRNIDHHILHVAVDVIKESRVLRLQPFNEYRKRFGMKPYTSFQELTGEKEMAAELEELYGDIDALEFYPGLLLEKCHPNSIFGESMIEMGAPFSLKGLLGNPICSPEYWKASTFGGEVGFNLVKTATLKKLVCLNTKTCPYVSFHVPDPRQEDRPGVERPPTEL
- assay_info: IC50 for inactivation of cyclooxygenase activity of PGHS after 30 min incubation
- Format: biochemical, ram (seminal vesicles)
- conditions: read-out: IC50 (aspirin analogs 44 and 45)
reported_property: pIC50
# pIC50 = -log10(concentration in molar units)

query: # lookup: pIC50 of CC(=O)Oc1ccc(N2C(=O)C=CC2=O)cc1C(=O)O [Compound 45]
result: 4.54
